biological target: HLA-B*35:01_… (HLA-PEPTIDE target G5), soluble (human, enzymatically biotinylated (BirA)); assay: scFv PPE ELISA
I'd be grateful if you could share measured fold selective binding, target pHLA vs minipool of negative control pHLAs for these entries.

Some binders with known fold selective binding, target pHLA vs minipool of negative control pHLAs results, for comparison:
Input line: Item under review: scFv G5-P3G08 (scFv, V domains shown, scFv) VH: QVQLVQSGAEVKKPGASVKVSCKASGYIFRNYPMHWVRQAPGQGLEWMGWINPDSGGTKYAQKFQGRVTMTRDTSTSTVYMELSSLRSEDTAVYYCARDNGVGVDYWGQGTLVTVSS VL: DIQMTQSPSSLSASVGDRVTITCRASQGISNYLAWYQQKPGKAPKLLIYAASSLQSGVPSRFSGSGSGTDFTLTISSLQPEDFATYYCQQSYITPYTFGQGTKLEIK . Reported fold selective binding, target pHLA vs minipool of negative control pHLAs?
Output line: ≥ 3 fold

Input line: Let us now turn to scFv G5R4-P1H11 (scFv, V domains shown, scFv) VH: EVQLLESGGGLVKPGGSLRLSCAASGFTFSDYYMSWVRQAPGKGLEWVSYISSSSSYTNYADSVKGRFTISRDDSKNTLYLQMNSLKTEDTAVYYCARDVVANFDYWGQGTLVTVSS VL: EIVMTQSPATLSVSPGERATLSCRASQSVSSNLAWYQQKPGQAPRLLIYAASARASGIPARFSGSGSGTEFTLTISSLQSEDFAVYYCQQYGSWPRTFGQGTKVEIK
Output line: ≥ 3 fold

Switching to the query record.
Input line: Item under review: scFv G5-P4B02 (scFv, V domains shown, scFv) VH: QVQLVQSGAEVKKPGASVKVSCKASGYTFTGYYMHWVRQAPGQGLEWMGWMNPNIGNTGYAQKFQGRVTMTRDTSTSTVYMELSSLRSEDTAVYYCARGIADSGSYYGNGRDYYYGMDVWGQGTTVTVSS VL: DIVMTQSPDSLAVSLGERATINCKTSQSVLYRPNNENYLAWYQQKPGQPPKLLIYQASIREPGVPDRFSGSGSGTDFTLTISSLQAEDVAVYYCQQYYTTPYTFGQGTKLEIK . Reported fold selective binding, target pHLA vs minipool of negative control pHLAs?
Output line: ≥ 3 fold
